pIC50: −log10 of the molar value.
The next entries give measured pIC50 for Mu-type opioid receptor (Cavia porcellus).
value_type: pIC50

compound_smiles: CN[C@@H](Cc1ccc(O)cc1)C(=O)NCC(=O)N[C@H](C)C(=O)N[C@@H](Cc1ccccc1)C(=O)N[C@@H](CC(C)C)C(=O)N[C@@H](CCCN=C(N)N)C(=O)N[C@@H](CCCN=C(N)N)C(=O)N[C@@H](CC(C)C)C(N)=O
value_type: pIC50
observed_result: 7.90
//
compound_smiles: CN[C@@H](Cc1ccc(O)cc1)C(=O)NCC(=O)NNC(=O)N[C@@H](Cc1ccccc1)C(=O)N[C@@H](CC(C)C)C(=O)N[C@@H](CCCNC(=N)N)C(=O)N[C@@H](CCCNC(=N)N)C(=O)N[C@H](CC(C)C)C(N)=O
value_type: pIC50
observed_result: 7.73

----------
We begin with a simple list: items and their reported pKi.
- target_system: Mu-type opioid receptor (Cavia porcellus, UniProt P97266)
- Sequence (P97266 whole entry): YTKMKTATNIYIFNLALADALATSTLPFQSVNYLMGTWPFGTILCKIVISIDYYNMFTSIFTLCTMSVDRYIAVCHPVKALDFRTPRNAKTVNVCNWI
- protocol_details: Binding affinities against Opioid receptor mu 1 of guinea pig brain membrane using [3H]DAGO as the radioligand using competition binding assays.
pKi: −log10 of the molar value.

compound_smiles: CN[C@@H](Cc1ccc(O)cc1)C(=O)NCC(=O)NCC(=O)N[C@@H](Cc1ccccc1)C(=O)N[C@@H](CC(C)C)C(=O)N[C@@H](CCCNC(=N)N)C(=O)N(C)[C@@H](CCCNC(=N)N)C(=O)N[C@H](CC(C)C)C(N)=O
pKi: 8.48

compound_smiles: CN[C@@H](Cc1ccc(O)cc1)C(=O)NCC(=O)NCC(=O)N[C@H](Cc1ccccc1)C(=O)N[C@@H](CC(C)C)C(=O)N[C@@H](CCCNC(=N)N)C(=O)N[C@@H](CCCNC(=N)N)C(=O)N[C@@H](CC(C)C)C(N)=O
pKi: 8.55

compound_smiles: CC[C@H](C)[C@H](NC(=O)[C@H](CCCNC(=N)N)NC(=O)[C@H](CCCNC(=N)N)NC(=O)[C@H](CC(C)C)NC(=O)[C@H](Cc1ccccc1)NC(=O)CNC(=O)CNC(=O)[C@@H](N)Cc1ccc(O)cc1)C(N)=O
pKi: 8.15

compound_smiles: CCNC(=O)[C@@H](CC(C)C)NC(=O)[C@H](CCCN=C(N)N)N(C)C(=O)[C@H](CCCN=C(N)N)NC(=O)[C@@H]1CSSC[C@@H](NC(=O)[C@@H](N)Cc2ccc(O)cc2)C(=O)NCC(=O)N[C@@H](Cc2ccccc2)C(=O)N1
pKi: 9.07

----------
- target_system: Delta-type opioid receptor (Mus musculus, UniProt P32300)
- Sequence (P32300 whole entry): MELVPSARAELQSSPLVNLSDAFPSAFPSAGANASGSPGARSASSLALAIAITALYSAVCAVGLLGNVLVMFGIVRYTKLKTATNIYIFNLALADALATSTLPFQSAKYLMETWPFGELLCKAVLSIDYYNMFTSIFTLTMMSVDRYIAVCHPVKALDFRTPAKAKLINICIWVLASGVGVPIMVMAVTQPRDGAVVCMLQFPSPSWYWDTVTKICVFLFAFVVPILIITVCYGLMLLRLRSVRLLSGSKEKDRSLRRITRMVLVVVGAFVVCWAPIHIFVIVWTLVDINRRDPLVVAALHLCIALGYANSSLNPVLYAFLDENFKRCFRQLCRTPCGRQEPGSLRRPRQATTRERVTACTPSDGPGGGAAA
- protocol_details: Evaluated for inhibitory activity against Opioid receptor delta 1 of mouse vas deferens (MVD).
pIC50: −log10 of the molar value. Square brackets hold non-standard residues; d marks the D form. Peptide text beside a SMILES is read from it. Sar = CNCC(=O)O

molecule: CC[C@H](C)[C@H](NC(=O)[C@H](CCCNC(=N)N)NC(=O)[C@H](CCCNC(=N)N)NC(=O)[C@H](CC(C)C)NC(=O)[C@H](Cc1ccccc1)NC(=O)CNC(=O)CNC(=O)[C@@H](N)Cc1ccc(O)cc1)C(N)=O
pIC50: 8.52
//
molecule: CC(C)C[C@H](NC(=O)[C@H](CCCNC(=N)N)NC(=O)[C@H](CCCNC(=N)N)NC(=O)[C@H](CC(C)C)NC(=O)[C@H](Cc1ccccc1)NC(=O)CNC(=O)CN(C)C(=O)[C@@H](N)Cc1ccc(O)cc1)C(N)=O (H-Y[Sar]GFLRRL-NH2)
pIC50: 5.75
//
molecule: CN[C@@H](Cc1ccc(O)cc1)C(=O)NCC(=O)NCC(=O)N[C@@H](Cc1ccccc1)C(=O)N[C@@H](CC(C)C)C(=O)N(C)[C@@H](CCCN=C(N)N)C(=O)N[C@@H](CCCN=C(N)N)C(=O)N[C@H](CC(C)C)C(N)=O
pIC50: 6.94
//
molecule: CN[C@@H](Cc1ccc(O)cc1)C(=O)NCC(=O)N[C@H](C)C(=O)N[C@@H](Cc1ccccc1)C(=O)N[C@@H](CC(C)C)C(=O)N[C@@H](CCCN=C(N)N)C(=O)N[C@@H](CCCN=C(N)N)C(=O)N[C@@H](CC(C)C)C(N)=O
pIC50: 6.68

----------
- target_system: Delta-type opioid receptor (Mus musculus)
- protocol_details: Evaluated for inhibitory activity against Opioid receptor delta 1 of mouse vas deferens (MVD).
Square brackets hold non-standard residues; d marks the D form. Peptide text beside a SMILES is read from it. Phe(4-NO2) = N[C@@H](Cc1ccc([N+](=O)[O-])cc1)C(=O)O; NMeY = CN[C@@H](Cc1ccc(O)cc1)C(=O)O; NMeF = CN[C@@H](Cc1ccccc1)C(=O)O
We begin with a simple list: items and their reported IC50.
value_type: IC50 (nM)

molecule: CCNC(=O)[C@@H](CC(C)C)NC(=O)[C@H](CCCN=C(N)N)N(C)C(=O)[C@H](CCCN=C(N)N)NC(=O)[C@H](CC(C)C)NC(=O)[C@H](Cc1ccc([N+](=O)[O-])cc1)NC(=O)CNC(=O)CNC(=O)[C@H](Cc1ccc(O)cc1)NC
observed_result: 3.7

molecule: CN[C@@H](Cc1ccc(O)cc1)C(=O)NCC(=O)NCC(=O)N(C)[C@@H](Cc1ccccc1)C(=O)N[C@@H](CC(C)C)C(=O)N[C@@H](CCCNC(=N)N)C(=O)N[C@@H](CCCNC(=N)N)C(=O)N[C@@H](CC(C)C)C(N)=O (H-[NMeY]GG[NMeF]LRRL-NH2)
observed_result: 121

molecule: CN[C@@H](Cc1ccc(O)cc1)C(=O)N[C@@H](C)C(=O)NCC(=O)N[C@@H](Cc1ccccc1)C(=O)N[C@@H](CC(C)C)C(=O)N[C@@H](CCCNC(=N)N)C(=O)N[C@@H](CCCNC(=N)N)C(=O)N[C@@H](CC(C)C)C(N)=O (H-[NMeY]AGFLRRL-NH2)
observed_result: 25.7

molecule: CN[C@@H](Cc1ccc(O)cc1)C(=O)NCC(=O)NCC(=O)N[C@@H](Cc1ccc([N+](=O)[O-])cc1)C(=O)N[C@@H](CC(C)C)C(=O)N[C@@H](CCCN=C(N)N)C(=O)N[C@@H](CCCN=C(N)N)C(=O)N[C@@H](CC(C)C)C(N)=O (H-[NMeY]GG[Phe(4-NO2)]LRRL-NH2)
observed_result: 3.8

----------
- target_system: Mu-type opioid receptor (Cavia porcellus, UniProt P97266)
pIC50: −log10 of the molar value. Square brackets hold non-standard residues; d marks the D form. Peptide text beside a SMILES is read from it. Sar = CNCC(=O)O
Use satisfied when the recorded pIC50 is no lower than 9; use not satisfied when it is lower.

compound: CCNC(=O)[C@@H](CC(C)C)NC(=O)[C@H](CCCNC(=N)N)N(C)C(=O)[C@H](CCCNC(=N)N)NC(=O)[C@H](CC(C)C)NC(=O)[C@H](Cc1ccccc1)NC(=O)CNC(=O)CNC(=O)[C@H](Cc1ccc(O)cc1)NC
target_system: Mu-type opioid receptor (Cavia porcellus, UniProt P97266)
cat: satisfied
--
compound: CN[C@@H](Cc1ccc(O)cc1)C(=O)NCC(=O)NCC(=O)N[C@@H](Cc1ccccc1)C(=O)N[C@@H](CC(C)C)C(=O)N[C@@H](CCCNC(=N)N)C(=O)N(C)[C@@H](CCCNC(=N)N)C(=O)N[C@H](CC(C)C)C(N)=O
target_system: Mu-type opioid receptor (Cavia porcellus, UniProt P97266)
cat: satisfied
--
compound: CC(C)C[C@H](NC(=O)[C@H](CCCNC(=N)N)NC(=O)[C@H](CCCNC(=N)N)NC(=O)[C@H](CC(C)C)NC(=O)[C@H](Cc1ccccc1)NC(=O)CNC(=O)CN(C)C(=O)[C@@H](N)Cc1ccc(O)cc1)C(N)=O (H-Y[Sar]GFLRRL-NH2)
target_system: Mu-type opioid receptor (Cavia porcellus, UniProt P97266)
cat: not satisfied
--
compound: CN[C@@H](Cc1ccc(O)cc1)C(=O)NCC(=O)NCC(=O)N[C@@H](Cc1ccccc1)C(=O)N[C@@H](CC(C)C)C(=O)N[C@@H](CCCCN=C(N)N)C(=O)N[C@@H](CCCN=C(N)N)C(=O)N[C@H](CC(C)C)C(N)=O
target_system: Mu-type opioid receptor (Cavia porcellus, UniProt P97266)
cat: not satisfied
--
compound: CCNC(=O)[C@@H](CC(C)C)NC(=O)[C@H](CCCN=C(N)N)N(C)C(=O)[C@H](CCCN=C(N)N)NC(=O)[C@H](CC(C)C)NC(=O)[C@H](Cc1ccc([N+](=O)[O-])cc1)NC(=O)CNC(=O)CNC(=O)[C@H](Cc1ccc(O)cc1)NC
target_system: Mu-type opioid receptor (Cavia porcellus, UniProt P97266)
cat: satisfied
--
compound: CN[C@@H](Cc1ccc(O)cc1)C(=O)NCC(=O)NCC(=O)N[C@@H](Cc1ccccc1)C(=O)N[C@H](C)C(=O)N[C@@H](CCCNC(=N)N)C(=O)N[C@@H](CCCNC(=N)N)C(=O)N[C@H](CC(C)C)C(N)=O
target_system: Mu-type opioid receptor (Cavia porcellus, UniProt P97266)
cat: not satisfied
--
compound: CCCCCCNC(=O)[C@@H](CC(C)C)NC(=O)[C@H](CCCNC(=N)N)NC(=O)[C@H](CCCNC(=N)N)NC(=O)[C@H](CC(C)C)NC(=O)[C@H](Cc1ccccc1)NC(=O)CNC(=O)CNC(=O)[C@H](Cc1ccc(O)cc1)NC
target_system: Mu-type opioid receptor (Cavia porcellus, UniProt P97266)
cat: not satisfied
